Entries and their IC50
molecular target: EV68-3C protease (enterovirus D68); assay: FRET peptide cleavage assay (DABCYL/EDANS 10-mer, 2C/3A site); type: biochemical
Sequence (A1E4A3 entry or part of it): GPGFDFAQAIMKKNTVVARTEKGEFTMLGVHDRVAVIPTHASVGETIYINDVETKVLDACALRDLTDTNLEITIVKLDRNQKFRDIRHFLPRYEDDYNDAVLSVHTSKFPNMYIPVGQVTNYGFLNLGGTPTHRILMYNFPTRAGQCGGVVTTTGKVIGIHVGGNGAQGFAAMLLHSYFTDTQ

Answered examples (2):
>>> print(df.to_string())
                          compoundstructure  assayendpoint  testresult
0  COc1cccc2[nH]c(C(=O)N[C@@H](CC(C)C)C(=O)N[C@@H](C[C@@H]3CCNC3=O)C(=O)CO)cc12           IC50      1.8 µM
1  Cn1cnc(Cn2c(=O)[nH]/c(=N\c3cc4cn(C)nc4cc3Cl)n(Cc3cc(F)c(F)cc3F)c2=O)n1           IC50     > 10 µM

Shifting focus to the compound that follows.
Form entry - test system: EV68-3C protease (enterovirus D68); read-out: IC50; compound: CC(C)(C)[C@H](NC(=O)C(F)(F)F)C(=O)N1C[C@H]2[C@@H]([C@H]1C(=O)N[C@H](C#N)C[C@@H]1CCNC1=O)C2(C)C
> 10 µM
